- Assay summary: Antioxidant activity assessed as scavenging of glucose oxidase-generated H2O2 and hydroxyl radicals by chemiluminescence assay
- Type: functional
Can you tell me pIC50 for the items I'm about to list?
// scale note: pIC50 = -log10(conc_M); give the bare number

What value of measured pIC50 is listed for COC(=O)CCC1CNc2cc(OC(=O)N(C)c3ccc(OC)cc3)ccc21.Cl (stereo unspecified) ?
5.47

How about this compound: CCN(C)C(=O)Oc1cccc2c1C(CCC(N)=O)CN2.Cl (stereo unspecified)
5.62

Now try CN1CC(CCC(=O)O)c2ccc(O)cc21 (stereo unspecified) .
6.08

Would you kindly repeat that for `CCN(C)C(=O)Oc1ccc2c(c1)N(C)CC2` ?
5.94

Cool, now CCCCN(C)C(=O)Oc1ccc2c(c1)N(C)CC2CCC(=O)OC (stereo unspecified)
5.20

Another compound to check: O=C(O)CCC1CNc2cc(O)ccc21 (stereo unspecified)
5.63

Can you handle `COc1ccc2[nH]cc(CCNC(C)=O)c2c1` next?
4.02

Subsequent entry: COc1ccc(N(C)C(=O)Oc2cccc3c2C(CCC(=O)O)CN3C)cc1 (stereo unspecified)
4.99

What about COc1ccc(N(C)C(=O)Oc2cccc3c2C(CCC(=O)O)CN3)cc1 (stereo unspecified) ?
5.36

Now consider CCN(C)C(=O)Oc1ccc2c(c1)NCC2CCC(=O)O.Cl (stereo unspecified) and answer again.
5.94

Queued: COC(=O)CCC1CNc2cccc(OC(=O)N(C)c3ccc(OC)cc3)c21.Cl (stereo unspecified)
4.72

Ok, now CCN(C)C(=O)Oc1cccc2c1C(CCN)CN2 (stereo unspecified)
7.15

// next record COC(=O)CCC1CNc2cc(O)ccc21.Cl (stereo unspecified)
5.87

And then CCN(C)C(=O)Oc1cccc2c1C(CCC(=O)OC)CN2C (stereo unspecified) , what is it?
5.50

Consider next the compound CCCCN(C)C(=O)Oc1cccc2c1C(CCC(=O)OC)CN2C.Cl (stereo unspecified) in the same way.
5.16

Also `Cl.Oc1cccc2c1CCN2` ?
5.94

Same read-out for `CCN(C)C(=O)Oc1ccc2c(c1)N(CCC(=O)OC)CC2` ?
6.66

Another compound to look at: COC(=O)CCC1CNc2cccc(O)c21.Cl (stereo unspecified)
6.17

What do you have for `CCN(C)C(=O)Oc1cccc2c1CCN2.Cl` ?
5.86

Record: O=C(O)CCC1CNc2cccc(O)c21 (stereo unspecified)
5.84

Same again, this time with COC(=O)CCC1CN(C)c2cccc(O)c21 (stereo unspecified)
6.35

Do the same for CCN(C)C(=O)Oc1cccc2c1C(CCC(=O)O)CN2C.Cl (stereo unspecified) please
5.79

One more compound: CCCCN(C)C(=O)Oc1ccc2c(c1)NCC2CCC(=O)OC.Cl (stereo unspecified)
4.62

Further, for CCN(C)C(=O)Oc1cccc2c1C(CCC(=O)OC)CN2.Cl (stereo unspecified) ?
5.84

Quick one: COC(=O)CCC1CN(C)c2cccc(OC(=O)N(C)c3ccc(OC)cc3)c21 (stereo unspecified)
4.82

Same thing, different compound: CCN(C)C(=O)Oc1cccc2c1C(CCC(=O)O)CN2 (stereo unspecified)
5.80

Entry to check: CCN(C)C(=O)Oc1ccc2c(c1)NCC2CCC(=O)OC.Cl (stereo unspecified)
5.84

Now this one: `O=c1c(O)c(-c2ccc(O)c(O)c2)oc2cc(O)cc(O)c12`
7.22

How about this compound: `CCN(C)C(=O)Oc1cccc2c1CCN2CCC(=O)OC`
6.52

Try this compound next: COC(=O)CCC1CN(C)c2cc(OC(=O)N(C)c3ccc(OC)cc3)ccc21.Cl (stereo unspecified)
5.65

Now give it for `CN(C)C(=O)Oc1cccc2c1CCN2.Cl` too.
6.11
